RECORDED METRIC: melting point

Query block: For the compound CNC(=S)NS(=O)(=O)c1cc(CCNC(=O)/C=C/c2cccs2)ccc1OCc1ccccc1 , give its reported melting point.
Result block: 94 °C

====

Catalogue of melting point readings, one per entry.

The examples below pair each entry with its known result.
O=C(CC(=O)Oc1cc(O)cc(O)c1)Oc1cc(O)cc(O)c1
258 to 260 °C
Nc1ncc(-c2ccc(=O)[nH]n2)c(-c2ccc(F)c(F)c2)n1
307 °C
Nc1cccc(C(=O)c2ccc(-c3ccc(C(=O)c4cccc(N)c4)cc3)cc2)c1
217 to 218 °C

Query block: For the compound CC12CCC(CC1=O)C(C)(C)O2 (configuration not stated) , give its reported melting point.
Result block: 40 to 48 °C

Query block: For the compound COCOc1cc(F)ccc1-c1cc(-c2cccc(C(=O)OC)c2)c(C#N)c(N)n1 , give its reported melting point.
Result block: 155 to 158 °C

Query block: For the compound Cc1cccc(NS(=O)(=O)c2cc(S(=O)(=O)Nc3cccc(C)c3)c3cc(O)ccc3c2)c1 , give its reported melting point.
Result block: 115 to 117 °C

Query block: For the compound O=C(O)c1cc(Cl)ccc1OC1CCOC1=O (configuration not stated) , give its reported melting point.
Result block: 159 to 160 °C

Query block: For the compound NC(=O)c1c(F)ccc(OCc2nc3cc(-c4ccncc4)ccc3s2)c1F , give its reported melting point.
Result block: 255 to 258 °C

====

Catalogue of melting point readings, one per entry.

COc1cc(N)c(CCN2CCN(c3nsc4ccccc34)CC2)cc1OC
55 °C
Oc1cc2c(-c3ccc(Cl)cc3)csc2c(Cl)c1Cl
174 to 176 °C

Moving on to another compound below.
Query block: For the compound O=C(CCCN1CCCCC1)c1ccc2oc3ccc(C(=O)CCCN4CCCCC4)cc3c(=O)c2c1 , give its reported melting point.
Result block: 93 to 95 °C

====

Catalogue of melting point readings, one per entry.

Query block: For the compound O=c1ccoc2ccc(OCCCCCl)cc12 , give its reported melting point.
Result block: 75 to 77 °C

Query block: For the compound On1nnc2ccc(C3CCCc4cncn43)cc21 (configuration not stated) , give its reported melting point.
Result block: 279 °C

====

RECORDED METRIC: melting point

The examples below pair each entry with its known result.
COC(=O)C1C(C)CC2C3CCC4CC(O)CCC4(C)C3C(=O)CC21C (stereo unspecified)
173 to 174 °C
O=C(NC(=O)c1c(Cl)cccc1Cl)Nc1ccc(Br)cn1
228 to 230 °C
O=C1c2ccccc2C(=O)N1Cc1cc([N+](=O)[O-])cc([N+](=O)[O-])c1
171 °C
O=C(Nc1ccc2ccc(Cl)nc2n1)c1ccsc1
254 °C
COC(=C(C)C#N)C(F)(F)F
68 to 76.5 °C

Query block: For the compound C=CC(=O)N1CC(O)CC1C(=O)OC (stereo unspecified) , give its reported melting point.
Result block: 77 to 78 °C

Query block: For the compound COc1cc2c(-c3cc4cc(F)cnc4[nH]3)cn(C)c2cc1OC , give its reported melting point.
Result block: 283 °C

Query block: For the compound CCNC(=O)C(C)(C)c1ccc(C(=O)Nc2cn3cc(Cl)ccc3n2)cc1 , give its reported melting point.
Result block: 228 to 230 °C

Query block: For the compound CCCC(=NOCC)C1=C(O)CC(c2ccc(C=O)cc2)CC1=O (stereo unspecified) , give its reported melting point.
Result block: 81 to 82 °C

Query block: For the compound CC(=O)Nc1ccc(OC(=O)c2ccc(COC(=O)OC(C)O[N+](=O)[O-])cc2)cc1 (stereo unspecified) , give its reported melting point.
Result block: 149 to 152 °C

Query block: For the compound CC(C(=O)O)c1cccc(C(=O)c2cc3sccc3s2)c1 (stereo unspecified) , give its reported melting point.
Result block: 133 °C

Query block: For the compound CCCC(C=NNC(C)=O)c1ccc(Cl)cc1Cl (stereo unspecified) , give its reported melting point.
Result block: 145 to 147 °C

Query block: For the compound CC(=O)OCc1coc(-c2cccc(C3=Nc4ccc(-n5cccc5)cc4NC(=O)C3)c2)n1 , give its reported melting point.
Result block: 206 to 207 °C

Query block: For the compound NCCCCCCCNC(=O)OCc1ccccc1 , give its reported melting point.
Result block: 78 to 80 °C

Query block: For the compound Nc1nc2ccccc2c2c1nc1n2C(CO)COC1 (stereo unspecified) , give its reported melting point.
Result block: 239 to 240 °C

Query block: For the compound N#CC(Nc1ccccc1C(=O)C1CC1)c1c(Cl)cccc1Cl (stereo unspecified) , give its reported melting point.
Result block: 144 °C

====

RECORDED METRIC: melting point

The examples below pair each entry with its known result.
O=C(c1ccc(Cl)cc1)c1ccc(-n2ccnc2)nc1
155 to 156 °C
O=[N+]([O-])c1ccc(Oc2ccc(C(F)(F)F)cc2Cl)cc1SCl
74 to 78 °C
CCOC[C@@H]1[C@H](c2ccc(Cl)c(Cl)c2)C[C@H]2CC[C@@H]1N2C
52.5 to 54.5 °C
COC(=O)c1cc(F)c(O)nc1O
208 to 213 °C
O=c1oc2cc(O)ccc2c2c1CCCC2
200 to 202 °C

Moving on to another compound below.
Query block: For the compound CON=C(c1ccc(F)cc1)c1ccc2[nH]c(NC(=O)OC)nc2c1 , give its reported melting point.
Result block: 290 to 295 °C

====

Catalogue of melting point readings, one per entry.

The examples below pair each entry with its known result.
Cc1ccc2sc3ncc(C(=O)Nc4nnn[nH]4)c(=O)n3c2c1
> 300 °C
COCC1CN(c2ccc(C3CCC4(CC3)OCCO4)cn2)C(=O)O1 (racemic)
117 to 121 °C
CCCCCCCCS(=O)(=O)Nc1ccccc1Oc1ccccc1C(=O)O
100 to 102 °C
O=C(Nc1ccccc1)C(CBr)CBr
143 to 144 °C
CCCN(CCC)C(Cc1cccc2[nH]cnc12)C(=O)OCC (stereo unspecified)
78 to 80 °C

Moving on to another compound below.
Query block: For the compound COc1cn(-c2ccc(N3CC=CC3)cc2F)nc(-c2ccnn2-c2ccccc2)c1=O , give its reported melting point.
Result block: 204 to 207 °C

====

RECORDED METRIC: melting point

The examples below pair each entry with its known result.
COc1cc(-c2ccc(N)nn2)ccc1OC(F)F
184 °C
COC(=O)CCN1CCC(NC(=O)OC(C)(C)C)CC1
91 to 93 °C
CC(C)(C)OC(=O)N1CC2CC(CN(CC(O)COc3ccccc3)C2)C1 (stereo not drawn)
86 to 88 °C
CCCCSc1c[nH]nc1C1CN2CCC1CC2 (stereo not drawn)
162 to 164 °C
O=C(NCCc1ccccc1)c1cc2c(cn1)[nH]c1ccccc12
297 to 298 °C

Moving on to another molecule below.
Query block: For the molecule NC(=O)CNc1ncccc1NC(=O)c1ccccn1 , give its reported melting point.
Result block: 188 to 190 °C

====

RECORDED METRIC: melting point

The examples below pair each entry with its known result.
O=[N+]([O-])c1cccc(C=[N+]([O-])c2cccc(CO)c2)c1
177 to 179 °C
Cc1cc(C)n(Cc2ccc3c(c2)Cc2c(-c4ccsc4)n[nH]c2-3)n1
257 to 260 °C

Query block: For the compound Nc1sc(CCC(=O)O)cc1C(=O)c1ccccc1Cl , give its reported melting point.
Result block: 170 to 173 °C

Query block: For the compound NS(=O)(=O)C1=CC2=C(OCCO)CCSC2S1 (stereo not drawn) , give its reported melting point.
Result block: 110 to 113 °C

Query block: For the compound N#Cc1ccc(N2C(=N)C3(CCSCC3)NC2=O)cc1C(F)(F)F , give its reported melting point.
Result block: 226 to 227 °C

Query block: For the compound CC(=O)Nc1c(C(=O)c2ccccc2)[nH]c2cc(Cl)ccc12 , give its reported melting point.
Result block: 212 to 213 °C

Query block: For the compound CNC(=O)[C@@H](C[C@H](O)[C@H](CC1CCCCC1)NC(=O)OC(C)(C)C)C(C)C , give its reported melting point.
Result block: 154 to 157 °C

Query block: For the compound COc1ccccc1-n1c(=O)[nH]c2c(C(N)=O)nc(-c3ccc(C#N)cc3)nc21 , give its reported melting point.
Result block: 335 to 338 °C

====

Catalogue of melting point readings, one per entry.

O=C1NC(=O)C(=Cc2cc(O)c(O)c([N+](=O)[O-])c2)C(=O)N1
269 to 272 °C
CCc1cc(-c2ccc(-c3cc[nH]n3)cc2)ccc1OC
164 to 168 °C

Query block: For the molecule CCN(CC)CCOc1ccc(Nc2ncc3c(n2)N(CC)C(=O)N(c2cc(OC)cc(OC)c2)C3)cc1 , give its reported melting point.
Result block: 139 to 141 °C

Query block: For the molecule Brc1cccc(-c2cc(-c3cccc(Br)c3)on2)c1 , give its reported melting point.
Result block: 155 to 156 °C

Query block: For the molecule Cc1oc(-c2ccccc2)nc1CC=Cc1ccc(CC2SC(=O)NC2=O)cc1 (stereo unspecified) , give its reported melting point.
Result block: 55 to 57 °C

Query block: For the molecule CC(C)CNC(=O)C(C)NC(=O)C(C)NC(=O)C(C)NC(=O)OCc1ccccc1 (stereo unspecified) , give its reported melting point.
Result block: 260 to 262 °C
